- TARGET DESC: D(1A) dopamine receptor (Sus scrofa, UniProt P50130)
- Sequence (P50130 whole entry): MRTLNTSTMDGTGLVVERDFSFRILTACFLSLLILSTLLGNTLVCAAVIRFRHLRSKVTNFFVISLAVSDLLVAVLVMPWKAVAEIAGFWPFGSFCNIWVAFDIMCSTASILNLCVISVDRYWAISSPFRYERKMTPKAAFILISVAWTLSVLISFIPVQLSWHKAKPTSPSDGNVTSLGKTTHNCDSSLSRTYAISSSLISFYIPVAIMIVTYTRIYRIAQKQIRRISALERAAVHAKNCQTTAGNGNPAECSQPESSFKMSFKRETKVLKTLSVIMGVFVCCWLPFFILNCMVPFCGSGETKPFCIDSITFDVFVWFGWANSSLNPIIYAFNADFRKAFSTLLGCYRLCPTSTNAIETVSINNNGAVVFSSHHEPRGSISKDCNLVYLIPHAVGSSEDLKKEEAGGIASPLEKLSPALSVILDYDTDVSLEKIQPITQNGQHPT
- ASSAY: Displacement of [3H]SCH23390 from D1 receptor in pig striatal membrane
The following molecules are listed with their measured Ki values.
Numbers only here, please. The scale is µM.

See these solved cases before continuing.
COc1ccccc1N1CCN(Cc2cn([C@@H]3O[C@H](CO)[C@@H](O)[C@H](O)[C@H]3F)nn2)CC1    54
COc1ccccc1N1CCN(Cc2cn(CCOCCOCCF)nn2)CC1    30
COc1ccccc1N1CCN(Cc2cn(-c3ccc(OCCCF)cc3)nn2)CC1    38

// Ki lookup, molecule = COc1ccccc1N1CCN(Cc2cn(-c3ccc(OCCCOC4O[C@H](CO)[C@@H](O)[C@H](O)[C@H]4F)cc3)nn2)CC1 (stereo not given in full) , result: 16

Ki reading for COc1ccccc1N1CCN(Cc2cn(-c3ccc(OCCF)cc3)nn2)CC1 : 45

Noted for COc1ccccc1N1CCN(Cc2cn(CCCCCCF)nn2)CC1 : its Ki reads 26

get_value(item= COc1ccccc1N1CCN(Cc2cn(-c3ccc(OCCCOCCF)cc3)nn2)CC1 , readout=Ki) returns 3.6

COc1ccccc1N1CCN(Cc2cn([C@@H]3O[C@H](CF)[C@@H](O)[C@H](O)[C@H]3O)nn2)CC1 has a reported Ki of 77

Recorded result, COc1ccccc1N1CCN(Cc2cn(CCOCCOCCOCCF)nn2)CC1 , Ki: 60

Record summary for COc1ccccc1N1CCN(Cc2cn(-c3ccc(OCCOCCOCCF)cc3)nn2)CC1 : reported Ki = 43

###

Target sequence: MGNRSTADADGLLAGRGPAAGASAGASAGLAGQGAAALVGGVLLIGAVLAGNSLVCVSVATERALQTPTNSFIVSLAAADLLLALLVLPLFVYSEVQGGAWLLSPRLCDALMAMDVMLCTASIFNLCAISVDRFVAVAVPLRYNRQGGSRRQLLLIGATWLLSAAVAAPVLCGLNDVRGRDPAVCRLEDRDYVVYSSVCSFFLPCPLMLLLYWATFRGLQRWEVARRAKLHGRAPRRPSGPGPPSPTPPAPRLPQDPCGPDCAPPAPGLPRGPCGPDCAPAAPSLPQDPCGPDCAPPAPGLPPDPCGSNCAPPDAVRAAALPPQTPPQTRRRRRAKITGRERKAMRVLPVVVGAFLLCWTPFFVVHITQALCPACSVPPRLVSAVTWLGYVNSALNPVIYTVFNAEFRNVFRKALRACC
MEASURED ENDPOINT: Ki (nM)
The reply should be a number in nM, with the unit left off.

# Ki of COc1ccccc1N1CCN(Cc2cn([C@@H]3O[C@H](CO)[C@@H](O)[C@H](O)[C@H]3F)nn2)CC1 = 500

Ki reported for this compound COc1ccccc1N1CCN(Cc2cn(CCOCCOCCOCCF)nn2)CC1 : 680

Lab book: Ki of COc1ccccc1N1CCN(Cc2cn(-c3ccc(OCCCF)cc3)nn2)CC1 noted as 5.1

In plain terms, COc1ccccc1N1CCN(Cc2cn([C@@H]3O[C@H](CF)[C@@H](O)[C@H](O)[C@H]3O)nn2)CC1 has a documented Ki of 340

// Ki value for COc1ccccc1N1CCN(Cc2cn(-c3ccc(OCCOCCOCCF)cc3)nn2)CC1 : 100

###

- TARGET DESC: D(2) dopamine receptor (Homo sapiens)
- ASSAY: Displacement of [3H]spiperone from human D2short receptor expressed in CHO cells
- Type: cell-based
pKi: −log10 of the molar value.
Each record gets a class by pKi: low group = under 5, middle group = from 5 up to 6, high group = 6 and over

Field: example entries. Status: answers known.
COc1ccccc1N1CCN(Cc2cn(CCOCCOCCF)nn2)CC1    middle group
COc1ccccc1N1CCN(Cc2cn(CCOCCOCCOCCF)nn2)CC1    middle group
COc1ccccc1N1CCN(Cc2cn(-c3ccc(OCCOCCOCCF)cc3)nn2)CC1    middle group

**Query** Band of COc1ccccc1N1CCN(Cc2cn(CCCCCCF)nn2)CC1 ?
**Result** high group

**Query** In plain terms, what class is COc1ccccc1N1CCN(Cc2cn(-c3ccc(OCCF)cc3)nn2)CC1 ?
**Result** low group

**Query** Just checking, what class would you give COc1ccccc1N1CCN(Cc2cn(-c3ccc(OCCCF)cc3)nn2)CC1 here?
**Result** high group

**Query** Please indicate the class for COc1ccccc1N1CCN(Cc2cn([C@@H]3O[C@H](CO)[C@@H](O)[C@H](O)[C@H]3F)nn2)CC1 based on its pKi.
**Result** low group

**Query** Which class does COc1ccccc1N1CCN(Cc2cn([C@@H]3O[C@H](CF)[C@@H](O)[C@H](O)[C@H]3O)nn2)CC1 fall in?
**Result** low group

###

- TARGET DESC: D(2) dopamine receptor (Homo sapiens)
- ASSAY: Displacement of [3H]spiperone from human D2long receptor expressed in CHO cells
- Format: cell-based
Decision: Ki beneath 2000 nM gives Y; Ki meeting or exceeding 2000 nM gives N.

Worked cases, answers included:
COc1ccccc1N1CCN(Cc2cn(-c3ccc(OCCCOC4O[C@H](CO)[C@@H](O)[C@H](O)[C@H]4F)cc3)nn2)CC1 (stereo partly specified)    N
COc1ccccc1N1CCN(Cc2cn(CCOCCF)nn2)CC1    Y
COc1ccccc1N1CCN(Cc2cn([C@@H]3O[C@H](CO)[C@@H](O)[C@H](O)[C@H]3F)nn2)CC1    N
COc1ccccc1N1CCN(Cc2cn(-c3ccc(OCCCOCCF)cc3)nn2)CC1    Y

**Query** Dear colleague, could you confirm whether Ki of COc1ccccc1N1CCN(Cc2cn(-c3ccc(OCCCF)cc3)nn2)CC1 falls below 2000 nM? Thanks.
**Result** Y

**Query** Strictly below 2000 nM: is that where Ki of COc1ccccc1N1CCN(Cc2cn(CCCCCCF)nn2)CC1 sits?
**Result** Y

**Query** Given COc1ccccc1N1CCN(Cc2cn(CCOCCOCCOCCF)nn2)CC1 , is recorded Ki strictly lower than 2000 nM?
**Result** N

**Query** Consider COc1ccccc1N1CCN(Cc2cn([C@@H]3O[C@H](CF)[C@@H](O)[C@H](O)[C@H]3O)nn2)CC1 . Does its Ki lie strictly below 2000 nM?
**Result** N

**Query** Below 2000 nM on Ki? Entry COc1ccccc1N1CCN(Cc2cn(CCOCCOCCF)nn2)CC1
**Result** N

**Query** Does the reported Ki of COc1ccccc1N1CCN(Cc2cn(-c3ccc(OCCF)cc3)nn2)CC1 stay below 2000 nM?
**Result** Y

**Query** Problem: For the compound COc1ccccc1N1CCN(Cc2cn(-c3ccc(OCCOCCOCCF)cc3)nn2)CC1 , is Ki under 2000 nM?
**Result** N

###

- ASSAY: Displacement of [3H]ketanserin from 5-HT2 in pig cerebral cortex
- Type: tissue-based, Sus scrofa
MEASURED ENDPOINT: Ki (µM)
The reply should contain only the number, in µM.

Below are worked cases with known answers.
COc1ccccc1N1CCN(Cc2cn(-c3ccc(OCCCOCCF)cc3)nn2)CC1    9
COc1ccccc1N1CCN(Cc2cn(CCOCCF)nn2)CC1    27
COc1ccccc1N1CCN(Cc2cn(CCCCCCF)nn2)CC1    6.4

Attention now shifts to the item below.
Record COc1ccccc1N1CCN(Cc2cn(-c3ccc(OCCF)cc3)nn2)CC1 . Reported Ki: 10

###

- TARGET DESC: D(2) dopamine receptor (Homo sapiens, UniProt P14416)
- Sequence (P14416 whole entry): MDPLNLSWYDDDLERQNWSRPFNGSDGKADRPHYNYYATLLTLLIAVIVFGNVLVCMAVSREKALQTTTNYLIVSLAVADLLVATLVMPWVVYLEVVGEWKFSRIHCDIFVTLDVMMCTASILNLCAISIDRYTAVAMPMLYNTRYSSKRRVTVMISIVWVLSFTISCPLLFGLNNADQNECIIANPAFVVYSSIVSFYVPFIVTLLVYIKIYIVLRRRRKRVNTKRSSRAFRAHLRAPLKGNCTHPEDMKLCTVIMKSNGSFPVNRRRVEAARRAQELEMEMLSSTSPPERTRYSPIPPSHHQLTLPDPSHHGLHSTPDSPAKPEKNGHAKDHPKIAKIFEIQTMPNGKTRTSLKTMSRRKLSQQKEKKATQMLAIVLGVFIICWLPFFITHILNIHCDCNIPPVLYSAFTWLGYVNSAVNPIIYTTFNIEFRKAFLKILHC
- ASSAY: Displacement of [3H]spiperone from human D2short receptor expressed in CHO cells
- Format: cell-based
MEASURED ENDPOINT: pKi
By convention, pKi is the negative base-10 log of a molar concentration.

COc1ccccc1N1CCN(Cc2cn(CCOCCF)nn2)CC1    6.12
COc1ccccc1N1CCN(Cc2cn(-c3ccc(OCCCOCCF)cc3)nn2)CC1    6.11

pKi reading for COc1ccccc1N1CCN(Cc2cn(-c3ccc(OCCCOC4O[C@H](CO)[C@@H](O)[C@H](O)[C@H]4F)cc3)nn2)CC1 (stereo partly drawn) : 5.82
